I'd be grateful if you could share measured EC50 for these entries.
- System: Human immunodeficiency virus 1
- Assay Details: Antiviral activity against NNRTI-resistant Human immunodeficiency virus 1 harboring reverse transcriptase Y181C mutation infected in human TZM-bl cells assessed decrease in p24 level after 7 days by ELISA
- Format: functional, organism-based
- Assay Context: Human immunodeficiency virus 1, TZM-bl, 168 h

Ask | Name the recorded EC50 for Cc1ccnc2c1NC(=O)c1cccnc1N2C1CC1 .
Reply | > 10 µM

Ask | Name the recorded EC50 for CC1CCCCC1Oc1cc(CCc2ccccc2)[nH]c(=O)c1I (mixture of isomers) .
Reply | 0.296 µM

Ask | Name the recorded EC50 for CC(C)c1c(Cc2ccccc2)n(COCc2ccccc2)c(=O)[nH]c1=O .
Reply | > 10 µM

Ask | Name the recorded EC50 for CC(C)c1c(O[C@H]2CCCC[C@@H]2C)cc(CCc2ccccc2)[nH]c1=O (racemic) .
Reply | 0.063 µM
